# fold change of affinity per entry
- Target Desc: T1, Human CD137 ECD (human)
- T1 construct: entry includes C-terminal His-tag and biotin acceptor peptide; also called human CD137 extracellular domain; 4-1BB
- T1 sequence (chain, as listed by the source limits assumed): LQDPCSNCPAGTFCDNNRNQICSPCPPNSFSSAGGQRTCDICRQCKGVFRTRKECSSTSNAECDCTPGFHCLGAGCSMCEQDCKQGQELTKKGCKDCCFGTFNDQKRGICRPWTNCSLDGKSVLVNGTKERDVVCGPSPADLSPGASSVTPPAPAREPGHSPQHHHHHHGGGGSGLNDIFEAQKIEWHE
- Assay: Biacore SPR, vs parent H183/L072
Give the quantity in fold, number only.

INSERT INTO results (binder, measurement_unit, experimental_result) VALUES
  ('H183/L072 VL V94T (antibody, name in Kabat numbering, V domains shown, Dual-Ig) VH: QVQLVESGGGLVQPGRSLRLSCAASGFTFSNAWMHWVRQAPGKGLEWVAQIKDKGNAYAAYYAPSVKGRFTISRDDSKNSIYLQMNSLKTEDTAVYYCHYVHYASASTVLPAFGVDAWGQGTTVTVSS VL: DIVMTQSPLSLPVTPGEPASISCQASQELVHMNRNTYLHWYQQKPGQAPRLLIYKVSNRFPGVPDRFSGSGSGTDFTLKISRVEAEDVGVYYCAQGTSTPFTFGQGTKLEIK', 'fold', 0.4),
  ('H183/L072 VL P95K (antibody, name in Kabat numbering, V domains shown, Dual-Ig) VH: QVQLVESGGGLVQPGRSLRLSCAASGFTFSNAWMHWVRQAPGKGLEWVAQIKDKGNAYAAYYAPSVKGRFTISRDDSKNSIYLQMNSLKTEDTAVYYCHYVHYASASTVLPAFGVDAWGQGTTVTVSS VL: DIVMTQSPLSLPVTPGEPASISCQASQELVHMNRNTYLHWYQQKPGQAPRLLIYKVSNRFPGVPDRFSGSGSGTDFTLKISRVEAEDVGVYYCAQGTSVKFTFGQGTKLEIK', 'fold', 0);

--- query ---
Value of fold change of affinity reported for the binder H183/L072 VL N28I (antibody, name in Kabat numbering, V domains shown, Dual-Ig) VH: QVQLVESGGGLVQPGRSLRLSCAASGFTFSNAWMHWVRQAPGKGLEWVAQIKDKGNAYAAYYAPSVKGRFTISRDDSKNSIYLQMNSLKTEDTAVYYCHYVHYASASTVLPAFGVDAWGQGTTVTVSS VL: DIVMTQSPLSLPVTPGEPASISCQASQELVHMIRNTYLHWYQQKPGQAPRLLIYKVSNRFPGVPDRFSGSGSGTDFTLKISRVEAEDVGVYYCAQGTSVPFTFGQGTKLEIK is 0.3

Where do the numbers come from? From patent US20210388087A1.
